Entry source: patent US7842469B2

I'd be grateful if you could share measured Activity (relative to RLuc) cp for these entries.
# assay procedure: Luciferase activity of purified RLuc mutants (light output integrated over 10 s, luminometer)
# Type: biochemical
# experimental context: coelenterazine-cp; relative to native enzyme
Answers are plain numbers.

C124A/S257G: RLuc mutant C124A/S257G (protein) MASKVYDPEQRKRMITGPQWWARCKQMNVLDSFINYYDSEKHAENAVIFLHGNAASSYLWRHVVPHIEPVARCIIPDLIGMGKSGKSGNGSYRLLDHYKYLTAWFELLNLPKKIIFVGHDWGAALAFHYSYEHQDKIKAIVHAESVVDVIESWDEWPDIEEDIALIKSEEGEKMVLENNFFVETMLPSKIMRKLEPEEFAAYLEPFKEKGEVRRPTLSWPREIPLVKGGKPDVVQIVRNYNAYLRASDDLPKMFIEGDPGFFSNAIVEGAKKFPNTEFVKVKGLHFSQEDAPDEMGKYIKSFVERVLKNEQ = 1.3

Attention now turns to another entry.
Prompt: Could you share which Activity (relative to RLuc) cp value was measured for C124A/K136R: RLuc mutant C124A/K136R (protein) MASKVYDPEQRKRMITGPQWWARCKQMNVLDSFINYYDSEKHAENAVIFLHGNAASSYLWRHVVPHIEPVARCIIPDLIGMGKSGKSGNGSYRLLDHYKYLTAWFELLNLPKKIIFVGHDWGAALAFHYSYEHQDRIKAIVHAESVVDVIESWDEWPDIEEDIALIKSEEGEKMVLENNFFVETMLPSKIMRKLEPEEFAAYLEPFKEKGEVRRPTLSWPREIPLVKGGKPDVVQIVRNYNAYLRASDDLPKMFIESDPGFFSNAIVEGAKKFPNTEFVKVKGLHFSQEDAPDEMGKYIKSFVERVLKNEQ ?
Completion: 1.9
